Cited source for all entries: patent US20240067657A1

- measured.target: Human cytomegalovirus DNA polymerase (Human cytomegalovirus, UniProt P08546)
- Sequence (P08546 whole entry): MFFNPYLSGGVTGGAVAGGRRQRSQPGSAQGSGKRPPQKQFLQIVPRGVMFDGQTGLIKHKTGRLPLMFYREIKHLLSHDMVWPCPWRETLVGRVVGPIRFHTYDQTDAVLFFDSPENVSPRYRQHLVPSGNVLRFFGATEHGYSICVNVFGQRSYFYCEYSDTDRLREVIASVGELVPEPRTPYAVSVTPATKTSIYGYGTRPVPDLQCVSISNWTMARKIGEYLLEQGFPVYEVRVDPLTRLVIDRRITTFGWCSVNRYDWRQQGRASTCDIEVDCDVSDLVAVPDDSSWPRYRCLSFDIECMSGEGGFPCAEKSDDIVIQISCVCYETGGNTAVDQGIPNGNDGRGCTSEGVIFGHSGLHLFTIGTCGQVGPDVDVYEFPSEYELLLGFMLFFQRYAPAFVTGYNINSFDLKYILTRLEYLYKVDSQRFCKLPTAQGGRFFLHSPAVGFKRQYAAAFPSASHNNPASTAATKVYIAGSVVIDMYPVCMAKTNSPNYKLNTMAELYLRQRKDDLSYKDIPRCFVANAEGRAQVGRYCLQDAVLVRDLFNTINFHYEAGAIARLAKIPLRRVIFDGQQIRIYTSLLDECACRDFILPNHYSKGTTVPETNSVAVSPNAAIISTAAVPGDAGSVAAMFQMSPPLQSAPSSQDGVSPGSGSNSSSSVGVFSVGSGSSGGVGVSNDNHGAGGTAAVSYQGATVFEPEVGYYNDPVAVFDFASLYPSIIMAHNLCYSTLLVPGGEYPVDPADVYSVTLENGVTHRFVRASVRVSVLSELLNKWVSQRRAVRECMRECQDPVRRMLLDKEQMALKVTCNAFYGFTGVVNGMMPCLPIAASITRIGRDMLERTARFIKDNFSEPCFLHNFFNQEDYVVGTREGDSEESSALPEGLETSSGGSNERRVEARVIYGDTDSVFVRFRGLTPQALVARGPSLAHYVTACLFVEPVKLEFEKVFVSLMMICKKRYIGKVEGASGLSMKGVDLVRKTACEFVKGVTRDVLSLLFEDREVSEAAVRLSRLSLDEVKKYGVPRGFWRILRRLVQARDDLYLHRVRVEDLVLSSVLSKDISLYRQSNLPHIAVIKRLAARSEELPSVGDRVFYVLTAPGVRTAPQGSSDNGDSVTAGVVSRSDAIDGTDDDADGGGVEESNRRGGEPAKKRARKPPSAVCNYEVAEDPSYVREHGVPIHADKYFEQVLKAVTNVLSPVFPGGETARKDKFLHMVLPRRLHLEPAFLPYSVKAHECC
// returns Not satisfied unless IC50 is strictly below 20 nM, in which case Satisfied

COC1CC(c2cnc(C(=O)NCc3ccc(Cl)cc3)cc2O[C@H]2CCN3C(=O)OC[C@@H]3C2)C1 (stereo partly shown): Not satisfied
CS(=O)(=O)N1CCC(Oc2cc(C(=O)NCc3ccc(Cl)cc3)ncc2Cl)CC1: Not satisfied
Cn1ccc(-c2cnc(C(=O)NCc3ccc(Cl)cc3)cc2O[C@H]2CCN3C(=O)OC[C@@H]3C2)n1: Satisfied
O=C(NCc1ccc(Cl)cc1)c1cc(O[C@H]2CCN3C(=O)OC[C@@H]3C2)c(CN2CCCOCC2)cn1: Not satisfied
Cc1ncc(-c2cnc(C(=O)NCc3ccc(Cl)cc3)cc2O[C@H]2CCN3C(=O)OC[C@@H]3C2)o1: Satisfied
O=C(NCc1ccc(Cl)cc1)c1cc(O[C@H]2CCN3C(=O)OC[C@@H]3C2)c(-c2cnc(C(F)F)o2)cn1: Satisfied

In: Consider CC(=O)N1CCC(Oc2cc(C(=O)NCc3ccc(Cl)cc3)[n+]([O-])cc2-c2cnn(C(F)F)c2)CC1 . Does its IC50 lie strictly below 20 nM?
Out: Not satisfied

In: Next up: Cc1cnc(C(=O)NCc2ccc(Cl)cc2)cc1O[C@H]1CCN2C(=O)OC[C@@H]2C1
Out: Not satisfied

In: Next up: CC(=O)N1CCC(Oc2cc(C(=O)NCc3ccc(Cl)cc3)ncc2-c2cnsc2)CC1
Out: Not satisfied

In: Next up: CC(C)(O)Cn1cc(-c2cnc(C(=O)NCc3ccc(Cl)cc3)cc2O[C@H]2CCN3C(=O)OC[C@@H]3C2)cn1
Out: Satisfied

In: Next up: CC1(O)CCN(Cc2cnc(C(=O)NCc3ccc(Cl)cc3)cc2O[C@H]2CCN3C(=O)OC[C@@H]3C2)C1 (mixture of isomers)
Out: Not satisfied

In: Next up: O=C(NCc1ccc(Cl)cc1)c1cc(O[C@H]2CCN3C(=O)OC[C@@H]3C2)c(C2CC2O)cn1 (stereo partly shown)
Out: Not satisfied

In: Next up: O=C(NCc1ccc(Cl)cc1)c1cc(O[C@H]2CCN3C(=O)OC[C@@H]3C2)c(C2CC(F)(F)C2)cn1
Out: Not satisfied

In: Next up: O=C(NCc1ccc(Cl)cc1)c1cc(O[C@H]2CCN3C(=O)OC[C@@H]3C2)c(CNC2CC2)cn1
Out: Not satisfied

In: Next up: CC(=O)N1CCC(Oc2cc(C(=O)NCc3ccc(Cl)cc3)ncc2-c2ncc(C)s2)CC1
Out: Satisfied

In: Next up: O=C(OCN(Cc1ccc(Cl)cc1)C(=O)c1cc(O[C@H]2CCN3C(=O)OC[C@@H]3C2)c(-c2cnn(C(F)F)c2)cn1)C1CCOCC1
Out: Not satisfied

In: Next up: O=C(NCc1ccc(Cl)cc1)c1cc(O[C@H]2CCN3C(=O)OC[C@@H]3C2)c(-c2cnc(CO)s2)cn1
Out: Satisfied

In: Next up: O=C(NCc1ccc(Cl)cc1)c1cc(O[C@H]2CCN3C(=O)OC[C@@H]3C2)c(-c2nccs2)cn1
Out: Satisfied

In: Next up: CC(=O)N1CCC(Oc2cc(C(=O)NCc3ccc(Cl)cc3)ncc2-c2cnc(C)o2)CC1
Out: Not satisfied

In: Next up: O=C(NCc1ccc(Cl)cc1)c1cc(O[C@H]2CCN3C(=O)OC[C@@H]3C2)c(N2CCOCC2)cn1
Out: Not satisfied

In: Next up: O=C(NCc1ccc(C(F)(F)F)cc1)c1cc(O[C@H]2CCN3C(=O)OC[C@@H]3C2)c(-c2cnn(C(F)F)c2)cn1
Out: Not satisfied

In: Next up: O=C(NCc1ccc(F)c(F)c1F)c1cc(O[C@H]2CCN3C(=O)OC[C@@H]3C2)c(-c2cnn(C(F)F)c2)cn1
Out: Not satisfied

In: Next up: O=C(NCc1ccc(Cl)cn1)c1cc(O[C@H]2CCN3C(=O)OC[C@@H]3C2)c(-c2cnn(C(F)F)c2)cn1
Out: Not satisfied

In: Next up: CS(=O)(=O)c1cnc(C(=O)NCc2ccc(Cl)cc2)cc1O[C@H]1CCN2C(=O)OC[C@@H]2C1
Out: Not satisfied

In: Next up: N#Cc1ccc(CNC(=O)c2cc(O[C@H]3CCN4C(=O)OC[C@@H]4C3)c(-c3cnn(C(F)F)c3)cn2)c(F)c1
Out: Not satisfied

In: Next up: CC(=O)N1CCC(Oc2cc(C(=O)NCc3ccc(Cl)cc3)ncc2-c2cnco2)CC1
Out: Not satisfied

In: Next up: O=C(NCc1ccc(Cl)cc1)c1cc(O[C@H]2CCN3C(=O)CC[C@@H]3C2)c(-c2cnn(C(F)F)c2)cn1
Out: Satisfied
